For each entry below, report its pIC50 value.
- System under test: Human alpha-thrombin (Homo sapiens)
- Construct: Human alpha-thrombin (Enzyme Research Labs); purchased Enzyme Research Labs
- Procedure text: Thrombin counterscreen for selectivity, fluorogenic substrate assay
- Assay type: biochemical
- Condition: Human alpha-thrombin 12.5 nM, Boc-Val-Pro-Arg-AMC 20 μM, 10 min preincubation
pIC50: −log10 of the molar value.

Record CCc1cc2c(C(=O)n3nc4c(c3N)CCCC4)cccc2[nH]1 [Example 50] has Human alpha-thrombin (Homo sapiens) pIC50 equal to 4.60

Record COC1CCc2c(c(N)nn2C(=O)c2cccc3[nH]c(C)cc23)C1 (stereo not shown) [Example 120] has Human alpha-thrombin (Homo sapiens) pIC50 equal to < 4.10

Record Nc1nn(C(=O)c2cccc3[nH]ncc23)c2c1CCCC2 [Example 157] has Human alpha-thrombin (Homo sapiens) pIC50 equal to < 4.00

Record CCn1ccc2c(C(=O)n3nc4c(c3N)CCCC4)cccc21 [Example 28] has Human alpha-thrombin (Homo sapiens) pIC50 equal to 4.44

Record Nc1nn(C(=O)[C@@H]2CCNc3ccccc32)c2c1C[C@@H](O)CC2 (single isomer, unassigned) [Example 172] has Human alpha-thrombin (Homo sapiens) pIC50 equal to < 4.00

Record CCCn1ccc2c(C(=O)n3nc4c(c3N)CCCC4)cccc21 [Example 36] has Human alpha-thrombin (Homo sapiens) pIC50 equal to < 4.10

Record Nc1c2c(nn1C(=O)[C@H]1CCNc3ccc(F)cc31)CC[C@H](F)C2 (single isomer, unassigned) [Example 140] has Human alpha-thrombin (Homo sapiens) pIC50 equal to < 4.22

Record Nc1nn(C(=O)[C@H]2CCNc3ccccc32)c2c1C[C@H](O)CC2 (single isomer, unassigned) [Example 167] has Human alpha-thrombin (Homo sapiens) pIC50 equal to < 4.10

Record Nc1c2c(nn1C(=O)[C@H]1CCNc3ccc(Cl)cc31)CC[C@H](O)C2 (single isomer, unassigned) [Example 143] has Human alpha-thrombin (Homo sapiens) pIC50 equal to < 4.10

Record Nc1c2c(nn1C(=O)[C@H]1CCNc3ccc(F)cc31)C[C@@H](O)CC2 (single isomer, unassigned) [Example 183] has Human alpha-thrombin (Homo sapiens) pIC50 equal to < 4.00

Record CS(=O)(=O)N1CCC(C(=O)n2nc3c(c2N)CCCC3)c2ccccc21 (stereo not shown) [Example 99] has Human alpha-thrombin (Homo sapiens) pIC50 equal to 4.66

Record CCc1cc2c(C(=O)n3nc(N)c4c3CCCC4)cccc2n1CC (single isomer, unassigned) [Example 69] has Human alpha-thrombin (Homo sapiens) pIC50 equal to < 4.00

Record Cc1cc2c(C(=O)n3nc4c(c3N)CCCC4)cccc2n1C [Example 22] has Human alpha-thrombin (Homo sapiens) pIC50 equal to 4.70

Record Cn1ccc2c(C(=O)n3nc4c(c3N)CCCC4)cccc21 (single isomer, unassigned) [Example 7] has Human alpha-thrombin (Homo sapiens) pIC50 equal to 4.52

Record Nc1c2c(nn1C(=O)c1cccc3[nH]cnc13)CCCC2 [Example 48] has Human alpha-thrombin (Homo sapiens) pIC50 equal to < 4.00

Record Nc1c2c(nn1C(=O)C1CCCc3ccccc31)CCCC2 (single isomer, unassigned) [Example 5] has Human alpha-thrombin (Homo sapiens) pIC50 equal to < 4.30

Record Nc1c2c(nn1C(=O)[C@@H]1CCCc3[nH]c(Cl)cc31)CC[C@H](O)C2 (single isomer, unassigned) [Example 128] has Human alpha-thrombin (Homo sapiens) pIC50 equal to < 4.19

Record Nc1c2c(nn1C(=O)C1CCNc3ccc(F)cc31)CCC(NC(=O)OCc1ccccc1)C2 (single isomer, unassigned) [Example 190] has Human alpha-thrombin (Homo sapiens) pIC50 equal to < 4.22

Record Cc1csc(C)c1C(=O)n1cc2c(n1)CCCC2 [Example 35] has Human alpha-thrombin (Homo sapiens) pIC50 equal to < 4.00

Record Nc1nn(C(=O)c2cccc3[nH]c(C4CC4)cc23)c2c1CCCC2 (single isomer, unassigned) [Example 54] has Human alpha-thrombin (Homo sapiens) pIC50 equal to < 4.07

Record CCn1c(C)c(C(=O)n2nc3c(c2N)CCCC3)c2ccccc21 [Example 45] has Human alpha-thrombin (Homo sapiens) pIC50 equal to < 4.00

Record Cc1cc2c(s1)CCCC2C(=O)n1nc2c(c1N)CCCC2 (stereo not shown) [Example 86] has Human alpha-thrombin (Homo sapiens) pIC50 equal to < 4.10

Record C=Cc1cc2c(C(=O)n3nc4c(c3N)CCCC4)cccc2[nH]1 (single isomer, unassigned) [Example 70] has Human alpha-thrombin (Homo sapiens) pIC50 equal to 4.89

Record Nc1nn(C(=O)c2cccc3[nH]c(Br)cc23)c2c1CCCC2 (single isomer, unassigned) [Example 63] has Human alpha-thrombin (Homo sapiens) pIC50 equal to < 4.00

Record O=C(Nc1[nH]nc2c1CCCC2)C1OCCc2ccccc21 (stereo not shown) [Example 14] has Human alpha-thrombin (Homo sapiens) pIC50 equal to < 5.00

Record Nc1c2c(nn1C(=O)[C@H]1CCCc3[nH]c(Cl)cc31)CC[C@@H](O)C2 (single isomer, unassigned) [Example 125] has Human alpha-thrombin (Homo sapiens) pIC50 equal to < 4.00

Record Cn1ccc2c(C(=O)n3nc(N)c4c3CCCC4)cccc21 (single isomer, unassigned) [Example 8] has Human alpha-thrombin (Homo sapiens) pIC50 equal to < 4.30

Record Nc1c2c(nn1C(=O)c1c[nH]c3ccccc13)CCCC2 [Example 42] has Human alpha-thrombin (Homo sapiens) pIC50 equal to < 4.00
